Value source: patent US20250351832A1

Tested on: tomato seedlings
method-description: Response of tomato plants, greenhouse growth (Ex. 30)
Assay type: in vivo
experimental-conditions: 120 h
Give CCI 5th Day for every item shown.
Answers are plain numbers.

Examples with their reported CCI 5th Day follow.
{"columns": ["compound", "CCI 5th Day"],
 "data": [
  ["C=C1C2CCC(C2)C1(C)C (stereo not drawn) [Camphene, camphene]", 13.99],
  ["C=CCc1ccc(O)c(OC)c1 [Eugenol]", 13.74],
  ["C=C(C)[C@H]1CC=C(C)CC1 [D-limonene]", 13.66]
]}

Would you be so kind as to report CCI 5th Day for each listed record?
1. CCCCC[C@H](O)CC(=O)CCc1ccc(O)c(OC)c1 [Gingerol]
2. CC(C)=CCCC(C)=CC=O [Citral]
3. Cc1ccc(C(C)C)cc1 [p-Cymene]

Output line:
1: 14.63; 2: 13.34; 3: 14.52
